Assay: tim23-1 mutant yeast growth inhibitors, confirmation, luminescence, single concentration (AID 463218);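 further: temperature-sensitive tim23-1 mutant grown at 25 °C; 0% = DMSO wells with yeast and 100% = medium wells without yeast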
Details: S. cerevisiae tim23-1 growth, BacTiter-Glo luminescence, 24 h; at 20 µM; hits give high values
Screen size: about 4,400 compounds; about 3,700 (84%) were called active. The set was probably picked from earlier hits. A selection follows.
The entries below are paired with their reported inhibition.
Observable: inhibition

| Compound | Value |
| --- | --- |
| CC[C@]1(C(=O)OC)[C@H]2C(=O)N(Cc3ccccc3)C(=O)[C@H]2[C@H]2CN=C(SCc3ccc(Cl)cc3)N21 | 31.4% (inactive) |
| O=C(N/N=C\c1cc(Br)c(Br)o1)C1COc2ccccc2O1 (stereo unspecified) | 31% (inactive) |
| N/C(=N\OC(=O)CC1CCCCC1)c1ccccc1 | 53.1% (active) |
| COc1cc(NC(=O)c2cccs2)ccc1NC(=O)c1ccccc1Cl | 42.2% (active) |
| COC(C/C=C/C(=O)[C@@H](C)OCc1ccccc1)OC | 55.2% (active) |
| Cc1ccc(-c2nn(C(C)(C)C)c3ncnc(N)c23)cc1 | 65.7% (active) |

---

Assay: tim23-1 mutant yeast growth inhibitors, confirmation, luminescence, single concentration (AID 463218)
Conditions: S. cerevisiae tim23-1 growth, BacTiter-Glo luminescence, 24 h; at 20 µM; hits give high values
The campaign covered roughly 4,400 compounds. About 3,700 (84%) were called active. So high a share suggests a set chosen from earlier hits. The list is a sample of the results.

| Molecule | inhibition [%] |
| --- | --- |
| O=C(CC(O)(C(F)(F)F)C(F)(F)F)Nc1ccc(Cl)c(Cl)c1 | 92.1 |
| Cc1nc2sc(C(=O)c3ccccc3)c(N)c2c2c1CCCC2 | 54.4 |
| CC(=O)Oc1ccc2c(c1)C(=O)c1ccccc1C2=O | 68.2 |
| O=C1Nc2ccccc2/C1=C/c1ccnc2ccccc12 | 56.8 |
| CCOc1ccc(NC(=O)CCC(=O)N/N=C/c2ccc([N+](=O)[O-])s2)cc1 | 76.9 |
| C=C1CCC(N(O)c2cc(C)on2)C(=C)CCC2C1CC2(C)C (stereo unspecified) | 44.8 |

---

Test: tim23-1 mutant yeast growth inhibitors, confirmation, luminescence, single concentration (AID 463218);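 further: temperature-sensitive tim23-1 mutant grown at 25 °C; 0% = DMSO wells with yeast and 100% = medium wells without yeast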
Details: S. cerevisiae tim23-1 growth, BacTiter-Glo luminescence, 24 h; at 20 µM
The campaign covered roughly 4,400 compounds. About 3,700 (84%) were called active.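 How the source made its calls: active means inhibition above about 39% in either of two replicate wells at 20 µM (limit read from the data); inactive means the rest.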 So high a share suggests a set chosen from earlier hits. Not all results are given here.
Outcome codes: yes (1) for active, no (0) for inactive

| Compound | Discrete label |
| --- | --- |
| O=C(NC(=S)Nc1cccc2c(O)cccc12)c1cccc(Br)c1 | no (0) |
| COc1ccc(CS(=O)/C(Cl)=C(/Cl)C(=O)Nc2ccc(OC)nc2)cc1 (stereo not drawn) | no (0) |
| COc1ccc(C(C[N+](=O)[O-])n2nc(C)cc2C)cc1 (stereo not drawn) | yes (1) |
| COc1ccc(C(=O)Nc2ccccc2C(=O)N/N=C/c2ccccc2OC)cc1 | yes (1) |
| COc1ccc(C(=O)Nc2ccccc2C(=O)N/N=C/c2ccc(O)c(OC)c2)cc1 | yes (1) |
| COc1ccc(Oc2cn[nH]c2-c2ccc(OC)cc2O)cc1 | yes (1) |
| Cc1cc2ncn(CCCCOc3ccccc3)c2cc1C | no (0) |
| CCOc1cc(NC(=O)c2ccccc2C(=O)O)c(OCC)cc1NC(=O)c1ccccc1F | yes (1) |
| CCn1c2ccccc2c2cc(NC(=S)N3CCOCC3)ccc21 | no (0) |
| O=C1CSC(=S)N1c1ccc(Cl)c(Cl)c1 | yes (1) |
| Cc1ccc(N=Cc2c(O)cc(C)oc2=O)c(C)c1 | no (0) |
| COc1cccc(-c2sc3ccc(OC)cc3c2-c2ccc(OCCN3CCCCC3)cc2)c1 | no (0) |
| CCCCC(CC)CNC(=O)C(=O)C1C(=O)Nc2ccccc21 (stereo not drawn) | yes (1) |
| N#C/C(=C\c1ccccc1C(F)(F)F)C(=O)Nc1ccccc1F | yes (1) |
| CCCCCCc1ccc(O)cc1O | yes (1) |
| O=C1NC(Nc2nc3ccccc3s2)(C(F)(F)F)C(=O)N1C1CCCCC1 (stereo not drawn) | yes (1) |
| CCc1ccc(C(=O)NC(=S)Nc2ccccc2N2CCOCC2)cc1 | yes (1) |
| COc1cc(SC)ccc1C(=O)Nc1nc(C)cs1 | yes (1) |
| O=c1oc(-c2ccccc2NS(=O)(=O)c2ccc(Cl)cc2)nc2ccccc12 | yes (1) |
| COc1ccc(-c2cc(C3CCN(c4ncccc4[N+](=O)[O-])CC3)[nH]n2)cc1 | yes (1) |
| CC1(C)C=Cc2c(ccc3c2OC[C@@H](c2ccc(O)cc2O)C3)O1 | no (0) |
| Cc1ccc2cc3cc(C(=O)N4CCCCCC4)oc3nc2c1 | yes (1) |
| Cc1ccc(C(=O)COc2cccc(NC(=O)c3ccco3)c2)cc1 | yes (1) |

---

Assay: tim23-1 mutant yeast growth inhibitors, confirmation, luminescence, single concentration (AID 463218);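 further: temperature-sensitive tim23-1 mutant grown at 25 °C; 0% = DMSO wells with yeast and 100% = medium wells without yeast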
Settings: S. cerevisiae tim23-1 growth, BacTiter-Glo luminescence, 24 h; at 20 µM; hits give high values
Out of some 4,400 compounds screened, about 3,700 (84%) were called active. The set was probably picked from earlier hits. Not all results are given here.
Answer no if inhibition is under 50%, and yes if it is 50% or more.

| Compound | Discrete label |
| --- | --- |
| N/C(=N\OC(=O)Nc1ccc(Cl)c(Cl)c1)c1ncc(C(F)(F)F)cc1Cl | yes |
| Cc1ccc(Nc2nc(-c3ccc(O)cc3O)cs2)nc1 | yes |
| Oc1ccc2ccccc2c1C=Nc1ccccc1 | yes |
| CC(C)Cn1c(N)c(C(=O)NCc2cccs2)c2nc3ccccc3nc21 | no |
| CN(C)/N=C/c1cn(-c2ccccc2)nc1-c1cccnc1 | no |
| CCOc1ccc(C(c2c(C)[nH][nH]c2=O)c2c(C)[nH][nH]c2=O)cc1OCC | no |
| O=C(NC(=S)NC1CCCCC1)c1ccc(Cl)cc1 | yes |
| CC1CCC2CCCCC2N1C(=O)c1cc([N+](=O)[O-])cc([N+](=O)[O-])c1 (stereo not drawn) | no |
| O=C1c2cccc3c([N+](=O)[O-])ccc(c23)C(=O)N1CC1CCCO1 (stereo not drawn) | yes |
| CC1CC2=C(CC1/C=N/NC(N)=S)C(C)(C)CCC2 (stereo not drawn) | no |
| N/C(Cc1ccc([N+](=O)[O-])cc1)=N\OC(=O)COc1ccc2ccccc2c1 | yes |
| CCCc1nc2c(c(=O)c3ccccc3n2C)c(=O)n1C1CCCCCC1 | yes |
| COc1ccccc1-c1n[nH]c2c1[C@H](C)CC[C@H]2C(C)C | yes |
| N/C(Cc1ccc([N+](=O)[O-])cc1)=N\OC(=O)C1CCCCC1 | yes |
| c1ccc(-c2nnc3n2NC(c2ccc4c(c2)OCO4)S3)cc1 (stereo not drawn) | no |
| COc1ccc(C(=O)O/N=C(\N)Cc2ccc(Cl)cc2Cl)cc1OC | yes |
| Cc1ccoc1C(=O)Nc1cccc(Oc2ccccc2)c1 | yes |
| Cc1[nH][nH]c(=O)c1C(c1ccc(-c2ccc(Cl)cc2)o1)c1c(C)[nH][nH]c1=O | yes |
| COc1ccc(C(=O)NC(=S)NC2CCCCC2)cc1 | yes |
| Cc1[nH]n(C(N)=S)c(=O)c1N=Nc1ccc(Cl)cc1Cl | yes |

---

Experiment: tim23-1 mutant yeast growth inhibitors, confirmation, luminescence, single concentration (AID 463218);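 further: temperature-sensitive tim23-1 mutant grown at 25 °C; 0% = DMSO wells with yeast and 100% = medium wells without yeast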
Details: S. cerevisiae tim23-1 growth, BacTiter-Glo luminescence, 24 h; at 20 µM; hits give high values
The whole screen tested about 4,400 compounds, of which about 3,700 (84%) were called active. The set was probably picked from earlier hits. A selection follows.
The entries below are paired with their reported inhibition.

| Compound | inhibition, % |
| --- | --- |
| COc1ccc(/C(N)=N/OC(=O)CCCc2ccccc2)cc1 | 41.2 |
| CC1CCCC(C)N1C(=O)CN1CCN(c2nc(-c3ccc(F)cc3)cs2)CC1 (stereo unspecified) | 54.5 |
| Cc1cc(N)n2nc(-c3ccc(C(C)(C)C)cc3)cc2n1 | 72.7 |
| Cc1ccc(-c2ccc(/C=N/NC(=O)CN3CCOCC3)o2)cc1[N+](=O)[O-] | 76.8 |
| C/C(=N\NC(=S)NCc1ccccc1)c1ccc(Cl)cc1 | 36.7 |
| O=C1[C@@H](c2ccccc2)[C@@H](c2ccccc2)N1c1cccnc1 | 71.3 |
| Cc1oc2c(c1C(=O)N1CCOCC1)C(=O)c1ccccc1C2=O | 59.5 |
| Oc1ccc(Br)cc1/C=N/Nc1ccccn1 | 65.5 |
| Cn1nc(C(F)(F)F)c2cc(NC(=O)OCC(C)(C)C)sc21 | 41.3 |
| CCN1C(=O)/C(=C2\SC(N3CCCCC3)=NC2=O)c2ccccc21 | 41.5 |
| Cc1cccc(C)c1N1C(=O)CN(Cc2ccccc2)C1=S | 44.8 |
